All figures here come from patent US20240116985A1.

# system: T1, B-cat-Halo (beta-catenin HaloTag construct expressed in HEK293 cells) (UniProt P35222 1-781)
# T1 sequence (looked up): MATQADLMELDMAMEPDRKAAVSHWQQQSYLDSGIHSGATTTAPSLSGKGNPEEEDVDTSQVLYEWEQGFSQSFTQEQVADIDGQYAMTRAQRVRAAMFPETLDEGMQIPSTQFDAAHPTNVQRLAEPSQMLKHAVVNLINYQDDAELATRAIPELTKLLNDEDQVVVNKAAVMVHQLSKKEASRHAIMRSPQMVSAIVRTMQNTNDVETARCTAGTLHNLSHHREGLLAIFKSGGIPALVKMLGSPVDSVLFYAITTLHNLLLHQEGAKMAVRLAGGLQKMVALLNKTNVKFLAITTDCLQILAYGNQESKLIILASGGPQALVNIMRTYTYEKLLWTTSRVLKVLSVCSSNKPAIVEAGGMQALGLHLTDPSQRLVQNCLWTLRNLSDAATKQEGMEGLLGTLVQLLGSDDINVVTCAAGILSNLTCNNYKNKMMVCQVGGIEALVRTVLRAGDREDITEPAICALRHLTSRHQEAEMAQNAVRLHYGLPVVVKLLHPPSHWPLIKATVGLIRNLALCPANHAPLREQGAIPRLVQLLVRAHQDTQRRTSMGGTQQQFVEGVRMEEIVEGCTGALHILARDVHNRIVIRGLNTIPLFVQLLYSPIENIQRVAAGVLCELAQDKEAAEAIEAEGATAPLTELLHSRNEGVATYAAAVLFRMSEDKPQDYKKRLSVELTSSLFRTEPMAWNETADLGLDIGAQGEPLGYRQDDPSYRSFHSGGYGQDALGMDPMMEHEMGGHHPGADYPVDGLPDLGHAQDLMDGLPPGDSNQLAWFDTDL
# assay.text: cell-based or functional assay
Starred links: 1 amine or outer side, 2 acyl side, 3 side chain; linkers in the order of their positions; H or OH if unused. Positions of bridges follow the written chain, without caps; N, C: chain ends. Non-standard residues stand in square brackets, D forms with d. PyrS1 = (S)-3-amino-1-((but-3-en-1-yloxy)carbonyl)pyrrolidine-3-carboxylic acid, C=CCCOC(=O)N1CC[C@@](N[*:1])(C(=O)[*:2])C1; B6 = 2-amino-2-(hex-5-en-1-yl)oct-7-enoic acid, C=CCCCCC(CCCCC=C)(N[*:1])C(=O)[*:2]; Phe(3-COOH) = N[C@@H](Cc1cccc(C(=O)O)c1)C(=O)O; Phe(2-CF3) = N[C@@H](Cc1ccccc1C(F)(F)F)C(=O)O; Bta = N[C@@H](Cc1csc2ccccc12)C(=O)O; αAllylPro = C=CC[C@@]1(C(=O)O)CCCN1; tBuAla = CC(C)(C)C[C@H](N)C(=O)O
experimental.readout: NanoBRET Abs IC50 (uM); Bcat-Halo / TCF4-Luc in HEK293 cells (µM)
The reply should be a number in µM, with the unit left off.

Using known records, supply NanoBRET Abs IC50 (uM); Bcat-Halo / TCF4-Luc in HEK293 cells for Ac-[αAllylPro]D[tBuAla][B6]D[Phe(3-COOH)]QAFL[PyrS1][Phe(2-CF3)][Bta]A-NH2 (staple 1-4, 4-11) [I-2510] 7.8
